solubility kinetic values, listed per item
conditions: buffer; pH 7.4; 200.0 µM

{"columns": ["compound", "operatorSymbol", "solubility kinetic [µg/mL]"],
 "data": [
  ["O=C1OCCC1Sc1nnc(-c2ccc(Cl)cc2Cl)o1 (configuration not stated)", ">", 49.7],
  ["COc1ccc(S(=O)(=O)N2CCOCC2)cc1NC(=O)CSc1ncccn1", "=", 13.8],
  ["Cc1n(Cc2ccccc2)c2ccccc2[n+]1Cc1ccccc1.[Cl-]", "=", 51.9],
  ["O=c1cc(C(O)C[N+](=O)[O-])occ1OCc1ccccc1 (configuration not stated)", "=", 41.6],
  ["CC(NC(=O)c1ccc(N)cc1)c1ccccc1 (configuration not stated)", ">", 36],
  ["CCCCn1cnc2c(oc3nc4c(cc32)CCCC4)c1=O", "=", 20.6],
  ["CCc1ccc(NC(=O)COC(=O)/C=C/c2ccco2)cc1", "=", 4.8]
]}

---

solubility kinetic values, listed per item
conditions: buffer; pH 7.4; 200.0 µM
measuredParameter: solubility kinetic (µg/mL)

{"columns": ["compound", "measuredParameter", "operatorSymbol", "resultNumber"],
 "data": [
  ["N#Cc1cccc2cccc(S(=O)(=O)N3CCOCC3)c12", "solubility kinetic", "=", 14.9],
  ["COc1ccccc1N(CC(=O)N1CCOCC1)S(C)(=O)=O", "solubility kinetic", ">", 49.3],
  ["CCN(CC)S(=O)(=O)c1ccc(=O)[nH]c1", "solubility kinetic", ">", 34.5],
  ["CN(Cc1c(F)cccc1Cl)C(=O)CCc1c[nH]c2ccccc12", "solubility kinetic", "=", 11.9],
  ["CCCn1nc(Oc2nc(N(C)C)nc(N(C)C)n2)ccc1=O", "solubility kinetic", ">", 47.9],
  ["COc1ccc(OCC(O)CNC(=O)c2cccs2)cc1 (configuration not stated)", "solubility kinetic", "=", 36.9],
  ["O=C(NCC(c1ccco1)N1CCCC1)c1cc(S(=O)(=O)N2CCCCC2)ccc1Cl (configuration not stated)", "solubility kinetic", ">", 69.9]
]}

---

conditions: buffer; pH 7.4; 200.0 µM
solubility kinetic values, listed per item

{"columns": ["compound", "operatorSymbol", "solubility kinetic [mg/mL]"],
 "data": [
  ["Cc1ccc(S(=O)(=O)N2CCN(C)CC2)c2nsnc12", ">", 0.0469],
  ["Cn1c(CN2CCN(CCO)CC2)c(C#N)c2ccccc21", ">", 0.0448],
  ["O=C(COC(=O)C1CC1)Nc1ccc2c(c1)OCO2", ">", 0.0395],
  ["Nc1ccc(Sc2ccccc2Cl)nc1", ">", 0.0355],
  ["Cc1[nH]cnc1C(=O)N/N=C/c1c(Cl)cccc1Cl", ">", 0.0446],
  ["Cc1cc(OCCCC(=O)NCCc2ccccn2)ccc1Cl", ">", 0.0499],
  ["COc1cc([N+](=O)[O-])ccc1NC(=O)Nc1ccc2c(c1)OCCO2", "<", 0.0002],
  ["C=CCSc1nc(C)c(CCCC)c(=O)[nH]1", ">", 0.0358],
  ["C=CCn1c(O)c(/C=N/N2CCCCC2)c(=O)[nH]c1=O", ">", 0.0417],
  ["NC(=S)NNC(=O)COc1ccccc1O", ">", 0.0362],
  ["C=CCNC(=O)N1CCCC(N2CCN(c3ccccc3OC)CC2)C1 (configuration not stated)", ">", 0.0538],
  ["COC(=O)C(NC(=O)c1ccccc1C(=O)O)c1ccc2ccccc2c1 (configuration not stated)", ">", 0.0545],
  ["O=C(Cc1ccccc1)NCCc1cnc[nH]1", ">", 0.0344],
  ["O=C(Nc1cccc(Cl)c1)C1COc2ccccc2O1 (configuration not stated)", "=", 0.0031],
  ["Cc1ccc(N2CCN(S(=O)(=O)N3CCCCC3)CC2)cc1C", "=", 0.0018],
  ["O=C(CN1CCOCC1)NNC(=O)c1ccc([N+](=O)[O-])cc1", ">", 0.0462],
  ["CC1CCN(CC#CCOc2ccc(Cl)cc2)CC1.O=C(O)C(=O)O", "=", 0.0163],
  ["CCCCN(C(=O)CSc1ncnc2sccc12)c1c(N)n(Cc2ccccc2)c(=O)[nH]c1=O", "=", 0.0039],
  ["COCC(C)NC(=O)C1c2ccccc2Oc2ccccc21 (configuration not stated)", "=", 0.0401],
  ["COc1ccc(CCNC(=O)c2ccc(OC)c(OC)c2)cc1OC", "=", 0.0396],
  ["Nc1c(NCc2ccccc2)c(=O)c1=O", "=", 0.0059],
  ["CCC1CCC(N2CCN(c3ccc(F)cc3)CC2)CC1 (configuration not stated)", "=", 0.0241],
  ["Cc1ccc(NC(=O)NCCN2CCCCC2)cc1C", "=", 0.0374],
  ["NC(=O)CS(=O)(=O)c1nc2ccccc2n1Cc1ccccn1", ">", 0.0496],
  ["COc1ccccc1C/C(N)=N/OC(=O)c1ccc2c(c1)OCO2", ">", 0.0492],
  ["CCOc1ccc(C2=CSC3=NCCN23)cc1Cl", "=", 0.025],
  ["COc1ccc(OC)c(NC(=O)COC(=O)[C@H](Cc2ccccc2)NC(=O)c2ccco2)c1", "=", 0.0057]
]}

---

conditions: buffer; pH 7.4; 200.0 µM
solubility kinetic values, listed per item
measuredParameter: solubility kinetic

{"columns": ["compound", "result"],
 "data": [
  ["Cc1ccc(S(=O)(=O)NC(=O)NC(C)c2ccc(F)cc2)cc1 (centres undefined)", "> 50.5 µg/mL"],
  ["COc1ccc(Nc2ncnc3ccc([N+](=O)[O-])cc23)c(OC)c1", "10.5 µg/mL"],
  ["COCCCN1C(=O)CC(C(=O)OC)=C1C", "> 34.1 µg/mL"],
  ["Cc1nc(Nc2ccc(Cl)cc2)c2oc3ccccc3c2n1", "< 0.2 µg/mL"],
  ["COc1ccc(NS(=O)(=O)c2cn(C)cn2)c(OC)c1", "> 44.6 µg/mL"],
  ["O=C(/C=C/Nc1ccc(S(=O)(=O)Nc2ncccn2)cc1)c1cccs1", "6.7 µg/mL"],
  ["O=C(NC1CCCCC1)N1CCc2ccccc2C1", "> 38.8 µg/mL"],
  ["Cc1ccc(O)c(NC(=O)C2CC(c3cccc(Br)c3)=NO2)c1 (centres undefined)", "< 0.4 µg/mL"],
  ["O=C1C(Cl)=C(N2CCCCCC2)C(=O)N1c1ccc(Br)cc1", "15.1 µg/mL"]
]}

---

conditions: buffer; pH 7.4; 200.0 µM
Kind request: treat 10 µg/mL as inclusive, so solubility kinetic at 10 µg/mL or higher is true, anything lower is false.

{"columns": ["compound", "labelClass"],
 "data": [
  ["COc1cc(NC(C)=O)ccc1NC(=O)c1cc2ccccc2o1", "false"],
  ["O=C(Nc1cccc(F)c1)c1ccc(Cn2cc([N+](=O)[O-])cn2)o1", "true"],
  ["CN(C)CC(=O)N1CCc2ccccc2C1.O=C(O)C(=O)O", "true"],
  ["COCCCNC1=C(Cl)C(=O)c2ccccc2C1=O", "true"],
  ["CC1c2cccn2CCN1S(=O)(=O)c1ccccc1 (centres undefined)", "true"],
  ["COc1ccc(C(=O)OCC(=O)NC(=O)NC2CCCC2)cc1[N+](=O)[O-]", "false"],
  ["COc1cc(/C=C2\\N=C(C)OC2=O)cc(OC)c1OC", "true"],
  ["N#Cc1ccccc1CN1C(=O)c2ccccc2S1(=O)=O", "false"],
  ["CCOC(=O)C1=C(CBr)NC(=O)NC1C (centres undefined)", "true"],
  ["COc1ccccc1OCC(=O)NC1CC(C)(C)NC(C)(C)C1", "true"],
  ["Cc1cccc(NC(=O)c2cccc(N3C(=O)C4C5C=CC(C6CC56)C4C3=O)c2)c1 (centres undefined)", "false"],
  ["O=C1OCC(c2ccccc2)=C1c1ccccc1[N+](=O)[O-]", "true"],
  ["COc1cc(C(=O)COC(=O)c2ccc([N+](=O)[O-])o2)cc(OC)c1OC", "true"],
  ["CN(C)C(=O)c1ccc(NC(=O)COC(=O)C2(c3ccccc3)CCCC2)cc1", "true"],
  ["Cc1onc(-c2ccccc2Cl)c1C(=O)N1CCCCC1C (centres undefined)", "true"],
  ["COC(=O)c1cn(C(=O)c2ccc(F)cc2)c2ccccc12", "false"],
  ["CC(=O)c1ccc(NC(=O)COC(=O)c2c[nH]c3ccccc23)cc1", "false"],
  ["O=C1CSC(c2cccc([N+](=O)[O-])c2)N1C1CC2CCC1C2 (centres undefined)", "true"]
]}

---

conditions: buffer; pH 7.4; 200.0 µM
measuredParameter: solubility kinetic (µg/mL)

{"columns": ["molecule", "measuredParameter", "unitText", "operatorSymbol", "resultNumber"],
 "data": [
  ["O=C(CNC(=O)[C@@H]1Cc2ccccc2CN1)NC1CCCC1", "solubility kinetic", "µg/mL", ">", 45.2],
  ["Cc1ccc(S(=O)(=O)Nc2ccccc2C(=O)N2CCOCC2)cc1", "solubility kinetic", "µg/mL", ">", 54.1],
  ["COC(=O)c1ccc(C(=O)NC2CCSc3ccccc32)cc1 (stereo not given)", "solubility kinetic", "µg/mL", "=", 4],
  ["C(=C\\c1ccncc1)/c1ccccc1", "solubility kinetic", "µg/mL", "=", 11.2],
  ["Cc1ccc(SCC(=O)N2CCN(c3ccccn3)CC2)cc1", "solubility kinetic", "µg/mL", "=", 43.8],
  ["COc1ccccc1N1CCN(C(=O)c2cccs2)CC1", "solubility kinetic", "µg/mL", ">", 45.4],
  ["O=C(Nc1ccc2c(c1)OCO2)Nc1ccc(F)cc1F", "solubility kinetic", "µg/mL", "=", 0.9],
  ["C/C=C/C(=O)OCC(=O)Nc1cccc(Br)c1", "solubility kinetic", "µg/mL", "=", 29],
  ["O=C(CCSCc1ccccc1Cl)NCc1ccco1", "solubility kinetic", "µg/mL", ">", 46.5],
  ["COC(=O)CC1C(=O)NCCN1C(=O)c1c(F)cccc1F (stereo not given)", "solubility kinetic", "µg/mL", ">", 46.8],
  ["CC(=O)Nc1ccc(S(=O)(=O)NCC(=O)OCC(=O)NCc2ccc3c(c2)OCO3)cc1", "solubility kinetic", "µg/mL", ">", 69.5],
  ["CCOC(=O)CN1C(=O)C2(OCCCO2)c2cc(Br)ccc21", "solubility kinetic", "µg/mL", "=", 31.5],
  ["Cc1cc(C)cc(-n2c(C)nc3cc(C(=O)O)ccc32)c1", "solubility kinetic", "µg/mL", "=", 35],
  ["CN(C)C(=O)COc1ccc(C(=O)/C=C/c2cccnc2)cc1", "solubility kinetic", "µg/mL", "=", 41.6],
  ["CN(CC(=O)Nc1ccc(F)cc1)C(=O)C1CCCC1", "solubility kinetic", "µg/mL", ">", 41.7],
  ["CNC(=O)COc1ccc(Nc2nnc(C)c3ccccc23)cc1.Cl", "solubility kinetic", "µg/mL", ">", 53.8],
  ["CCN(CC)CC(=O)Nc1c(C#N)cnn1-c1ccccc1", "solubility kinetic", "µg/mL", ">", 44.6],
  ["O=C(COC(=O)Cn1ccc(=O)[nH]c1=O)Nc1ccc(F)cc1", "solubility kinetic", "µg/mL", ">", 48.2],
  ["COc1cc2c(cc1OC)CN(C(=O)CCOc1ccccc1)CC2", "solubility kinetic", "µg/mL", "=", 30.3],
  ["Cc1cccc(NC(=O)c2cccc(NC(=O)c3ccccc3)c2)n1", "solubility kinetic", "µg/mL", "=", 7.1],
  ["Cc1cccc(C(=O)NCCC(=O)Nc2ccc(C#N)cc2)c1", "solubility kinetic", "µg/mL", "=", 1.3],
  ["COc1ccc(Cl)cc1C(=O)NC1=NCCS1", "solubility kinetic", "µg/mL", "=", 38.6],
  ["CC(C)CC(=O)C1=C(O)C(=O)N(Cc2ccccc2)C1c1ccccc1 (stereo not given)", "solubility kinetic", "µg/mL", "=", 47.3],
  ["Cc1cc2nc(C(C)(C)C)cc(N)n2n1", "solubility kinetic", "µg/mL", ">", 30.6],
  ["C=COCCCNc1ncnc2sc(-c3ccccc3)cc12", "solubility kinetic", "µg/mL", "=", 1.4],
  ["CN1CCc2cccc3c2[C@@H]1Cc1ccc(O)c(O)c1-3.Cl", "solubility kinetic", "µg/mL", "=", 12.5],
  ["CCCOC(=O)c1ccc(NC(=O)Cc2cccs2)cc1", "solubility kinetic", "µg/mL", "=", 24],
  ["Cc1cccc(OCCSc2nc(N)cc(N)n2)c1", "solubility kinetic", "µg/mL", ">", 41.5],
  ["CC(NC(=O)c1ccc(N(C)C)cc1)c1ccc(F)cc1 (stereo not given)", "solubility kinetic", "µg/mL", "=", 6.5],
  ["Cc1ccc(CNC(=O)C2CCCN2C(=O)Nc2ccc(C)cc2)cc1 (stereo not given)", "solubility kinetic", "µg/mL", "=", 11.4]
]}
